These measurements were taken from patent US8883963B2.

Each item that follows carries a reported half-life at 2 μM.
assay: Stability in simulated intestinal fluid; format: in vitro ADME; conditions: 2 μM peptidomimetic, simulated intestinal fluid pH 7.5, 37° C.; read-out: half-life (t1/2) when incubated with simulated intestinal fluid
readoutKind: half-life at 2 μM

• CCc1cc(OC)ccc1-c1ccc(CC(NC(=O)[C@H](CC(=O)O)NC(=O)[C@H](CO)NC(=O)[C@@H](NC(=O)[C@H](Cc2ccccc2)NC(=O)[C@@H](NC(=O)CNC(=O)C(CCC#N)NC(=O)C(C)(C)NC(=O)[C@@H](N)Cc2c[nH]cn2)[C@@H](C)O)[C@@H](C)O)C(=O)NC(CCCc2ccc(Cl)cc2C)C(N)=O)cc1 (single isomer, unassigned) [compound 32] = 30 min
• CCc1cc(OC)ccc1-c1ccc(CC(NC(=O)[C@H](CC(=O)O)NC(=O)[C@H](CO)NC(=O)[C@@H](NC(=O)[C@H](Cc2ccccc2)NC(=O)[C@@H](NC(=O)CNC(=O)[C@H](CCC(N)=O)NC(=O)[C@H](CO)NC(=O)[C@@H](N)Cc2c[nH]cn2)[C@@H](C)O)[C@@H](C)O)C(=O)NC(CCCc2ccccc2F)C(N)=O)cc1 (single isomer, unassigned) [compound 45] = 30 min

====

test: Stability in liver microsomes; type: in vitro ADME; details: 2 μM peptidomimetic, human liver microsomes, 37° C., 24 h
Non-standard residues stand in square brackets, D forms with d. Residues, ends and D or L forms follow the SMILES beside them. ξ: configuration not given here. *: point of attachment. Leu(5,5,5,5',5',5'-F6) = N[C@@H](CC(C(F)(F)F)C(F)(F)F)C(=O)O; X4 = CCc1cc(OC)ccc1-c1ccc(CC(CNC(CCCc2ccccc2F)C(N)=O)N*)cc1; ξαMePhe(2-F) = CC(N)(Cc1ccccc1F)C(=O)O; aThr = C[C@H](O)[C@H](N)C(=O)O; Aib = CC(C)(N)C(=O)O
readoutKind: % degradation of peptidomimetics in 24 h when incubated with liver microsomes

* CCc1cc(OC)ccc1-c1ccc(CC(CNC(CCCc2ccccc2F)C(N)=O)NC(=O)[C@H](CC(=O)O)NC(=O)[C@H](CO)NC(=O)[C@@H](NC(=O)C(C)(Cc2ccccc2F)NC(=O)[C@@H](NC(=O)CNC(=O)[C@H](CC(C(F)(F)F)C(F)(F)F)NC(=O)C(C)(C)NC(=O)[C@@H](N)Cc2c[nH]cn2)[C@H](C)O)[C@H](C)O)cc1 (stereo partly drawn) [compound 214] (H-H[Aib][Leu(5,5,5,5',5',5'-F6)]G[aThr][ξαMePhe(2-F)][aThr]SD-X4) | 100%
* CCc1cc(OC)ccc1-c1ccc(CC(C(=O)N(C)C(CCCc2ccccc2F)C(N)=O)N(C)C(=O)[C@H](CC(=O)O)NC(=O)[C@H](CO)NC(=O)[C@@H](NC(=O)C(C)(Cc2ccccc2F)NC(=O)[C@@H](NC(=O)CNC(=O)C(CCC#N)NC(=O)C(C)(C)NC(=O)[C@@H](N)Cc2c[nH]cn2)[C@H](C)O)[C@H](C)O)cc1 (single isomer, unassigned) [compound 144] | 80%
* CCc1cc(OC)ccc1-c1ccc(CC(NC(=O)[C@H](CC(=O)O)NC(=O)[C@H](CO)NC(=O)[C@@H](NC(=O)[C@H](Cc2ccccc2)NC(=O)[C@@H](NC(=O)CNC(=O)[C@H](CCC(N)=O)NC(=O)[C@H](CO)NC(=O)[C@@H](N)Cc2c[nH]cn2)[C@@H](C)O)[C@@H](C)O)C(=O)NC(CCCc2ccccc2Cl)C(N)=O)cc1 (single isomer, unassigned) [compound 50] | 82%
